test: Oral bioavailability in rat at 2 mg/kg; format: ADME, organism-based; settings: in vivo
REPORTED METRIC: bioavailability (%)
Field format: number, assumed %, no unit text.

Which bioavailability reading was recorded for the compound C[C@@H]1CN(C(=O)c2ccccc2)CCN1c1nnc(-c2ccc(C(F)(F)F)cc2)c2ccccc12 ? 39

* * *

biological target: CYP3A4 (Homo sapiens, UniProt P08684); assay: Inhibition of human CYP3A4 at 3 uM by HPLC-MS; type: ADME
Sequence (P08684 whole entry): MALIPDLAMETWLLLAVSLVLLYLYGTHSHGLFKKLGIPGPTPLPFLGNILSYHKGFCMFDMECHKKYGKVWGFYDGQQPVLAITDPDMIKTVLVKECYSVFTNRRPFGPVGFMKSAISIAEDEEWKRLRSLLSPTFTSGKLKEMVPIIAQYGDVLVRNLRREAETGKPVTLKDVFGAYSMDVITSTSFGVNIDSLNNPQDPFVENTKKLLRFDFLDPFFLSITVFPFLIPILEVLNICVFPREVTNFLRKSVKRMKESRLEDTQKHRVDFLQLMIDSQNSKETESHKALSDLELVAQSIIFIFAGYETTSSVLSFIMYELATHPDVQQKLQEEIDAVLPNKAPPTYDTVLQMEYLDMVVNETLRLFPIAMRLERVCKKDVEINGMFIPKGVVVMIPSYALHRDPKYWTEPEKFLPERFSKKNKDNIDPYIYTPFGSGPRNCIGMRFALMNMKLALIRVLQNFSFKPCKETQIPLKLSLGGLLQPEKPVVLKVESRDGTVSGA
REPORTED METRIC: inhibition at 3 µM

// known answers, use as guide
O=C(c1ccccc1)N1CCN(c2nnc(-c3ccc(Cl)c(Cl)c3)c3ccccc23)CC1 < 10%
C[C@H]1CN(c2nnc(-c3ccc(C(F)(F)F)cc3)c3ccccc23)CCN1C(=O)c1ccccc1 49%
C[C@H]1CN(c2nnc(-c3ncco3)c3ccccc23)CCN1C(=O)c1ccccc1 < 10%
O=C(c1nccs1)N1CCN(c2nnc(-c3ccccc3)c3ccccc23)CC1 < 10%
O=C(c1ccccc1)N1CCN(c2nnc(-c3ccc(Cl)cc3)c3ccccc23)CC1 16%

Switching to the query record.
Provide the documented inhibition at 3 µM with CYP3A4 (Homo sapiens, UniProt P08684) as the system for Cc1ccc(-c2nnc(N3CCN(C(=O)c4ccccc4)CC3)c3ccccc23)cc1 < 10%

* * *

experiment: Volume of distribution at steady state in rat at 0.5 mg/kg, iv; type: ADME, organism-based; set-up: dose 0.5 mg/kg, route intravenous; settings: in vivo, read-out: Vdss
REPORTED METRIC: Vd
Answer with the figure and its unit, nothing else.

Which Vd reading was recorded for the molecule C[C@@H]1CN(C(=O)c2ccccc2)CCN1c1nnc(-c2ccc(C(F)(F)F)cc2)c2ccccc12 ? 5.07 L/kg

* * *

test: Oral bioavailability in cynomolgus monkey at 2 mg/kg; format: ADME, organism-based, Macaca fascicularis; conditions: in vivo
REPORTED METRIC: bioavailability (%)
Field format: number, assumed %, no unit text.

Which bioavailability reading was recorded for the molecule C[C@@H]1CN(C(=O)c2ccccc2)CCN1c1nnc(-c2ccc(C(F)(F)F)cc2)c2ccccc12 ? 31

* * *

experiment: Clearance in cynomolgus monkey at 0.5 mg/kg, iv; assay type: ADME, organism-based, Macaca fascicularis; design: dose 0.5 mg/kg, route intravenous; conditions: in vivo
REPORTED METRIC: clearance (mL/min/kg)
Field format: number, assumed mL/min/kg, no unit text.

Which clearance reading was recorded for the compound C[C@@H]1CN(C(=O)c2ccccc2)CCN1c1nnc(-c2ccc(C(F)(F)F)cc2)c2ccccc12 ? 8.83

* * *

assay: Oral bioavailability in dog at 2 mg/kg; format: ADME, organism-based, Canis lupus familiaris; settings: in vivo
REPORTED METRIC: bioavailability (%)
Field format: number, assumed %, no unit text.

Which bioavailability reading was recorded for the compound C[C@@H]1CN(C(=O)c2ccccc2)CCN1c1nnc(-c2ccc(C(F)(F)F)cc2)c2ccccc12 ? 60

* * *

assay: Metabolic stability in rat liver microsome assessed as compound turnover after 30 mins; type: ADME; conditions: liver microsomes, read-out: Stability
Label satisfied when metabolised at 0.5 h is strictly below 40%; at or above that, label not satisfied.

CC(C)c1ccc(-c2nnc(N3CCN(C(=O)c4ccccc4)C[C@H]3C)c3ccccc23)cc1 not satisfied

Criterion: metabolised at 0.5 h strictly below 40%. Is it met by C[C@H]1CN(c2nnc(-c3ncco3)c3ccccc23)CCN1C(=O)c1ccccc1 ? satisfied

Next molecule up: O=C(c1ccccc1)N1CCN(c2nnc(-c3ccccc3Cl)c3ccccc23)CC1 satisfied

Next molecule up: C[C@H]1CN(c2nnc(-c3ccncc3)c3ccccc23)CCN1C(=O)c1ccccc1 satisfied

Next molecule up: C[C@@H]1CN(C(=O)c2ccccc2)CCN1c1nnc(-c2ccc(C3CC3)cc2)c2ccccc12 satisfied

Next molecule up: CC(=O)N1CCN(c2nnc(-c3ccccc3)c3ccccc23)CC1 satisfied

Next molecule up: Cc1ccc(-c2nnc(N3CCN(C(=O)c4ccccc4)CC3)c3ccccc23)cc1 not satisfied

Next molecule up: C[C@H]1CN(c2nnc(-c3ccccn3)c3ccccc23)CCN1C(=O)c1ccccc1 satisfied

* * *

# inhibition at 3 µM listing for each entry below
biological target: UniProt P10635; test: Inhibition of human CYP2D6 at 3 uM by HPLC-MS; type: ADME
Field format: number, assumed %, no unit text.

C[C@@H]1CN(C(=O)c2ccccc2)CCN1c1nnc(-c2ccc(Cl)cc2)c2ccccc12 60
C[C@@H]1CN(C(=O)c2ccccc2)CCN1c1nnc(-c2ccc(C(F)(F)F)cc2)c2ccccc12 15
N#Cc1cccc(-c2nnc(N3CCN(C(=O)c4ccccc4)CC3)c3ccccc23)c1 18
CC(=O)N1CCN(c2nnc(-c3ccccc3)c3ccccc23)CC1 29
C[C@H]1CN(c2nnc(-c3ccc(F)cc3)c3ccccc23)CCN1C(=O)c1ccccc1 18
O=C(c1ccccc1)N1CCN(c2nnc(-c3ccccc3)c3ccccc23)CC1 11
Cc1ccc(-c2nnc(N3CCN(C(=O)c4ccccc4)[C@@H](C)C3)c3ccccc23)cc1 10
O=C(c1nccs1)N1CCN(c2nnc(-c3ccccc3)c3ccccc23)CC1 89
C[C@@H]1CN(C(=O)c2ccccc2)CCN1c1nnc(-c2ccccc2)c2ccccc12 47
C[C@H]1CN(c2nnc(-c3ccccc3)c3ccccc23)CCN1C(=O)c1ccccc1 11

Which inhibition at 3 µM reading was recorded for the molecule C[C@@H]1CN(C(=O)c2ccccc2)CCN1c1nnc(-c2ccc(N(C)C)cc2)c2ccccc12 ? 26

* * *

test: Half life in cynomolgus monkey at 0.5 mg/kg, iv; assay type: ADME, organism-based, Macaca fascicularis; parameters: dose 0.5 mg/kg, route intravenous; conditions: in vivo
REPORTED METRIC: half-life (h)
Field format: number, assumed h, no unit text.

Which half-life reading was recorded for the compound C[C@@H]1CN(C(=O)c2ccccc2)CCN1c1nnc(-c2ccc(C(F)(F)F)cc2)c2ccccc12 ? 4.3

* * *

test: Metabolic stability in human liver microsome assessed as compound turnover after 30 mins; type: ADME; conditions: liver microsomes, read-out: Stability
REPORTED METRIC: metabolised at 0.5 h (%)
Field format: number, assumed %, no unit text.

C[C@@H]1CN(C(=O)c2ccccc2)CCN1c1nnc(-c2ccc(C(F)(F)F)cc2)c2ccccc12 13
C[C@@H]1CN(c2nnc(-c3ccccc3)c3ccccc23)CCN1C(=O)c1ccccc1 17
C[C@H]1CN(c2nnc(-c3ccncc3)c3ccccc23)CCN1C(=O)c1ccccc1 10
C[C@@H]1CN(C(=O)c2ccccc2)CCN1c1nnc(-c2ccc(C(C)(C)C)cc2)c2ccccc12 89
Cc1ccc(-c2nnc(N3CCN(C(=O)c4ccccc4)[C@@H](C)C3)c3ccccc23)cc1 38
C[C@H]1CN(c2nnc(-c3cccnc3)c3ccccc23)CCN1C(=O)c1ccccc1 10
C[C@@H]1CN(C(=O)c2ccccc2)CCN1c1nnc(-c2ccc(CO)cc2)c2ccccc12 14
COc1ccc(-c2nnc(N3CCN(C(=O)c4ccccc4)CC3)c3ccccc23)cc1 27
C[C@H]1CN(c2nnc(-c3ncco3)c3ccccc23)CCN1C(=O)c1ccccc1 10
O=C(c1ccccc1)N1CCN(c2nnc(-c3ccccc3)c3ccccc23)CC1 19

Which metabolised at 0.5 h reading was recorded for the molecule CC(=O)N1CCN(c2nnc(-c3ccccc3)c3ccccc23)CC1 ? 10

Next molecule up: C[C@@H]1CN(C(=O)c2ccccc2)CCN1c1nnc(-c2ccccc2)c2ccccc12 44

Next molecule up: Cc1ccccc1-c1nnc(N2CCN(C(=O)c3ccccc3)CC2)c2ccccc12 90

Next molecule up: CC(C)c1ccc(-c2nnc(N3CCN(C(=O)c4ccccc4)C[C@H]3C)c3ccccc23)cc1 41

Next molecule up: O=C(c1ccccc1)N1CCN(c2nnc(-c3ccc(Cl)c(Cl)c3)c3ccccc23)CC1 31

Next molecule up: O=C(c1ccccc1)N1CCN(c2nnc(-c3ccccc3Cl)c3ccccc23)CC1 62

* * *

target: CYP2D6 (Homo sapiens); experiment: Inhibition of human CYP2D6 at 3 uM by HPLC-MS; format: ADME
Sequence (P10635 whole entry): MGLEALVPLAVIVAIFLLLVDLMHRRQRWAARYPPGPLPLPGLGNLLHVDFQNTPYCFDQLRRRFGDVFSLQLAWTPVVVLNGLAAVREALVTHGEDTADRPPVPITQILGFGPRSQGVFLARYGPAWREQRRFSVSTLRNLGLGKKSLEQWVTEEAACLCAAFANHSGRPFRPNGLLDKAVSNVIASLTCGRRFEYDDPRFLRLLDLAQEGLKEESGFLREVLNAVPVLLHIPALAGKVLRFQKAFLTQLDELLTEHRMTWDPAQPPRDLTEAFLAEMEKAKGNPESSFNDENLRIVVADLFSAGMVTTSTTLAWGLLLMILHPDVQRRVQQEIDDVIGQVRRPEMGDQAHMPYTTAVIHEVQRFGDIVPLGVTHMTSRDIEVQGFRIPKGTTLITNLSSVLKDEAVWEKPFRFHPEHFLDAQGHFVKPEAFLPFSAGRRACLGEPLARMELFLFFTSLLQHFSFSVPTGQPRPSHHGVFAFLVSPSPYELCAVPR
Give True when the value for inhibition at 3 µM is at least 20%. Give False when it is less.

Known results for compounds:
Cc1ccc(-c2nnc(N3CCN(C(=O)c4ccccc4)CC3)c3ccccc23)cc1 False
O=C(c1ccccc1)N1CCN(c2nnc(-c3ccc(F)cc3)c3ccccc23)CC1 True
C[C@H]1CN(c2nnc(-c3ccc(Cl)cc3)c3ccccc23)CCN1C(=O)c1ccccc1 True
C[C@@H]1CN(c2nnc(-c3ccccc3)c3ccccc23)CCN1C(=O)c1ccccc1 False
O=C(c1ccco1)N1CCN(c2nnc(-c3ccccc3)c3ccccc23)CC1 True

Assess whether reported inhibition at 3 µM for C[C@H]1CN(c2nnc(-c3cccnc3)c3ccccc23)CCN1C(=O)c1ccccc1 sits at 20% or higher. False

Next compound up: C[C@H]1CN(c2nnc(-c3ccncc3)c3ccccc23)CCN1C(=O)c1ccccc1 True

Next compound up: C[C@H]1CN(c2nnc(-c3ccccn3)c3ccccc23)CCN1C(=O)c1ccccc1 False

Next compound up: C[C@@H]1CN(C(=O)c2ccccc2)CCN1c1nnc(-c2ccc(C#N)cc2)c2ccccc12 False

Next compound up: COc1ccc(-c2nnc(N3CCN(C(=O)c4ccccc4)CC3)c3ccccc23)cc1 False

Next compound up: COc1cccc(-c2nnc(N3CCN(C(=O)c4ccccc4)CC3)c3ccccc23)c1 False
